Values from the RNAGym collection of RNA variant scans (doi:10.1002/anie.201605470)

Attribute: self-cleavage
B1: Osa-1-4 twister ribozyme (parent)
chain: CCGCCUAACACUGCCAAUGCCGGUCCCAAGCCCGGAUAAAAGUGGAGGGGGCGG

Variants of: B1
Run description: self-cleavage, relative activity (ratio to wild type); higher = more cleavage; co-transcriptional
Respond numerically, and do not add a unit to the figure.

Answered cases to consult:
CCGCCUAACACUGCCAAUGCCGGUCCCAAGCCCGGAUAAAAGUGGGGGGCGCGG	0.06
CCGCCUAACACUGCCAAUGCCGGACCCGAGCCCGGAUAAAAGUGGAGGGGGCGG	0.06
CCGCCUAACACUGCCAAUGACGGUCCCAAGCCCGGAUAAAAGUGGUGGGGGCGG	0.06
CCGCCUCACACUGCCAAUGCCGGUCCAAAGCCCGGAUAAAAGUGGAGGGGGCGG	0.06

Identify self-cleavage associated with the variant CCGCCUAUCACUGCCAAUGCCGGUCCCAAGCCCGGAUAAAAGUGGAAGGGGCGG 0.06
